Data origin: patent USRE32311E

Tested on: Staphylococcus epidermidis EP12
experimental_protocol: agar-dilution MIC
Format: cell-based
What MIC was measured for each of the following?
Give your result in µg/mL as a bare value.

Please give the documented MIC of CCCCCCCCCC(=O)N[C@@H](Cc1c[nH]c2ccccc12)C(=O)N[C@@H](CC(N)=O)C(=O)N[C@@H](CC(=O)O)C(=O)N[C@@H]1C(=O)NCC(=O)N[C@@H](CCCN)C(=O)N[C@@H](CC(=O)O)C(=O)N[C@H](C)C(=O)N[C@@H](CC(=O)O)C(=O)NCC(=O)N[C@H](CO)C(=O)N[C@@H]([C@H](C)CC(=O)O)C(=O)N[C@@H](CC(=O)c2ccccc2N)C(=O)O[C@@H]1C 2

Please give the documented MIC of CCCCCCCCCCC(=O)N[C@@H](Cc1ccccc1)C(=O)N[C@@H](Cc1c[nH]c2ccccc12)C(=O)N[C@H](CC(N)=O)C(=O)N[C@@H](CC(=O)O)C(=O)N[C@@H]1C(=O)NCC(=O)N[C@@H](CCCN)C(=O)N[C@@H](CC(=O)O)C(=O)N[C@H](C)C(=O)N[C@@H](CC(=O)O)C(=O)NCC(=O)N[C@H](CO)C(=O)N[C@@H]([C@H](C)CC(=O)O)C(=O)N[C@@H](CC(=O)c2ccccc2N)C(=O)O[C@@H]1C 2

* * *

What MIC was measured for each of the following?
Tested on: Streptococcus pyogenes C203
experimental_protocol: agar-dilution MIC
Type: cell-based
Give your result in µg/mL as a bare value.

Please give the documented MIC of CCCCCCCCCCCC(=O)NCCCCC(=O)N[C@@H](Cc1c[nH]c2ccccc12)C(=O)N[C@H](CC(N)=O)C(=O)N[C@@H](CC(=O)O)C(=O)N[C@@H]1C(=O)NCC(=O)N[C@@H](CCCN)C(=O)N[C@@H](CC(=O)O)C(=O)N[C@H](C)C(=O)N[C@@H](CC(=O)O)C(=O)NCC(=O)N[C@H](CO)C(=O)N[C@@H]([C@H](C)CC(=O)O)C(=O)N[C@@H](CC(=O)c2ccccc2N)C(=O)O[C@@H]1C [Compound 2] 1

Please give the documented MIC of CCCCCCCCCCCC(=O)NCCCCCCCCCCC(=O)N[C@@H](Cc1c[nH]c2ccccc12)C(=O)N[C@H](CC(N)=O)C(=O)N[C@@H](CC(=O)O)C(=O)N[C@@H]1C(=O)NCC(=O)N[C@@H](CCCN)C(=O)N[C@@H](CC(=O)O)C(=O)N[C@H](C)C(=O)N[C@@H](CC(=O)O)C(=O)NCC(=O)N[C@H](CO)C(=O)N[C@@H]([C@H](C)CC(=O)O)C(=O)N[C@@H](CC(=O)c2ccccc2N)C(=O)O[C@@H]1C [Compound 3] 2

Please give the documented MIC of CCCCCCCCCC(=O)N[C@@H](Cc1ccccc1)C(=O)N[C@@H](Cc1c[nH]c2ccccc12)C(=O)N[C@H](CC(N)=O)C(=O)N[C@@H](CC(=O)O)C(=O)N[C@@H]1C(=O)NCC(=O)N[C@@H](CCCN)C(=O)N[C@@H](CC(=O)O)C(=O)N[C@H](C)C(=O)N[C@@H](CC(=O)O)C(=O)NCC(=O)N[C@H](CO)C(=O)N[C@@H]([C@H](C)CC(=O)O)C(=O)N[C@@H](CC(=O)c2ccccc2N)C(=O)O[C@@H]1C [Compound 19] 0.25
